Entry source: patent US20100016274A1

// values below are reported IC50
# testedOn: cannabinoid receptor-1 (CB1), CB1R-containing cell membrane (Homo sapiens)
# Construct: purchased Applied Cell Sciences Inc, Rockville, Md
# Sequence (P21554 whole entry, species assumed): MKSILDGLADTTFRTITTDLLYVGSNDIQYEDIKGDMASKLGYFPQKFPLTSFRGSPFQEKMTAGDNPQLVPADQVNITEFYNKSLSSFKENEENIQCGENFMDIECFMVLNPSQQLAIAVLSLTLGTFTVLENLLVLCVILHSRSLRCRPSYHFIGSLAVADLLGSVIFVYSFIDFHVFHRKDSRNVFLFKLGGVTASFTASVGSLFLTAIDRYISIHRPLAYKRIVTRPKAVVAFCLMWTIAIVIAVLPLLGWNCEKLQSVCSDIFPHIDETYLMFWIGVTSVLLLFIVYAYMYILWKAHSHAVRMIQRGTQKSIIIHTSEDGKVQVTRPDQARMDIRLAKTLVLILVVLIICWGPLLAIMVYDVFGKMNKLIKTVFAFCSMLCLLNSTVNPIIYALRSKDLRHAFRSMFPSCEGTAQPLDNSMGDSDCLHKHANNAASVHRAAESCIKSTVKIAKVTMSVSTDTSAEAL
# testDescription: biochemical
# Type: binding
# testContext: IC50, displacement of 3H-CP55940 (1 nM) on CB1 receptors
readoutType: IC50

compound: O=C(CN1C(=O)C(c2ccccc2)C1C=Cc1ccccc1)OCc1ccccc1 (stereo not drawn) [Example 70A]
testedOn: cannabinoid receptor-1 (CB1), CB1R-containing cell membrane (Homo sapiens)
readoutType: IC50
result: < 10 µM
//
compound: COc1cc(CNC(=O)[C@H](CCC(=O)N2CCN(C3CCCCC3)CC2)N2C(=O)[C@@H](N3C(=O)OC[C@@H]3c3ccccc3)[C@H]2/C=C/c2ccccc2)cc(OC)c1 [Example 38AD]
testedOn: cannabinoid receptor-1 (CB1), CB1R-containing cell membrane (Homo sapiens)
readoutType: IC50
result: < 10 µM
//
compound: O=C(CC[C@@H](C(=O)N1CCN(C2CCCCC2)CC1)N1C(=O)[C@@H](N2C(=O)OC[C@@H]2c2ccccc2)[C@H]1/C=C/c1ccccc1)NCc1cc(Cl)ccc1Cl [Example 37O]
testedOn: cannabinoid receptor-1 (CB1), CB1R-containing cell membrane (Homo sapiens)
readoutType: IC50
result: < 10 µM
//
compound: O=C(NCc1ccccc1C(F)(F)F)[C@H](CCC(=O)N1CCN(C2CCCCC2)CC1)N1C(=O)[C@@H](N2C(=O)OC[C@@H]2c2ccccc2)[C@H]1/C=C/c1ccccc1 [Example 38K]
testedOn: cannabinoid receptor-1 (CB1), CB1R-containing cell membrane (Homo sapiens)
readoutType: IC50
result: ~10 µM
//
compound: O=C(CC[C@@H](C(=O)N1CCN(C2CCCCC2)CC1)N1C(=O)[C@@H](N2C(=O)OC[C@@H]2c2ccccc2)[C@H]1/C=C/c1ccccc1)NCC1CCCCC1 [Example 37AA]
testedOn: cannabinoid receptor-1 (CB1), CB1R-containing cell membrane (Homo sapiens)
readoutType: IC50
result: < 10 µM
//
compound: O=C(CC[C@@H](C(=O)N1CCN(C2CCCCC2)CC1)N1C(=O)[C@@H](N2C(=O)OC[C@@H]2c2ccccc2)[C@H]1/C=C/c1ccccc1)NCc1ccc2c(c1)OCO2 [Example 37AC]
testedOn: cannabinoid receptor-1 (CB1), CB1R-containing cell membrane (Homo sapiens)
readoutType: IC50
result: < 10 µM
